- test-summary: log P by HPLC on reversed-phase columns (C 18), EEC directive 79/831 Annex V.A8
- Format: physicochemical
- experimental-conditions: pH 2.7
- Description: The log P values were measured according to EEC directive 79/831 Annex V.A8 by HPLC (High Performance Liquid Chromatography) on reversed-phase columns (C 18), using the method below: The determination was carried out in the acidic range at pH 2.7 using the mobile phases 0.1% aqueous formic acid and acetonitrile; linear gradient from 10% acetonitrile to 95% acetonitrile.
reported-property: log P
One number for each entry.

Examples with their reported log P follow.
COc1ccc(C2=NOC(=O)C2=Cc2ccc(C)s2)cc1 [U-9] : 3.28
Cc1c(C=C2C(=O)ON=C2c2ccc(Cl)cc2)sc2ccccc12 [I-144] : 4.63
O=C1ON=C(c2cc(F)ccc2F)C1=Cc1cccs1 [I-126] : 3.07
CCOc1ccccc1C1=NOC(=O)C1=Cc1cc(-c2ccccc2)cs1 [I-112] : 4.44

Turning to the following compound.
Please look at this compound and report its log P: Cc1ccc(C=C2C(=O)ON=C2c2ccccc2OCc2ccccc2)s1 [I-115]
3.98
